Molecular target: Toll-like receptor 7 (Homo sapiens, UniProt Q9NYK1)
Sequence (Q9NYK1 whole entry): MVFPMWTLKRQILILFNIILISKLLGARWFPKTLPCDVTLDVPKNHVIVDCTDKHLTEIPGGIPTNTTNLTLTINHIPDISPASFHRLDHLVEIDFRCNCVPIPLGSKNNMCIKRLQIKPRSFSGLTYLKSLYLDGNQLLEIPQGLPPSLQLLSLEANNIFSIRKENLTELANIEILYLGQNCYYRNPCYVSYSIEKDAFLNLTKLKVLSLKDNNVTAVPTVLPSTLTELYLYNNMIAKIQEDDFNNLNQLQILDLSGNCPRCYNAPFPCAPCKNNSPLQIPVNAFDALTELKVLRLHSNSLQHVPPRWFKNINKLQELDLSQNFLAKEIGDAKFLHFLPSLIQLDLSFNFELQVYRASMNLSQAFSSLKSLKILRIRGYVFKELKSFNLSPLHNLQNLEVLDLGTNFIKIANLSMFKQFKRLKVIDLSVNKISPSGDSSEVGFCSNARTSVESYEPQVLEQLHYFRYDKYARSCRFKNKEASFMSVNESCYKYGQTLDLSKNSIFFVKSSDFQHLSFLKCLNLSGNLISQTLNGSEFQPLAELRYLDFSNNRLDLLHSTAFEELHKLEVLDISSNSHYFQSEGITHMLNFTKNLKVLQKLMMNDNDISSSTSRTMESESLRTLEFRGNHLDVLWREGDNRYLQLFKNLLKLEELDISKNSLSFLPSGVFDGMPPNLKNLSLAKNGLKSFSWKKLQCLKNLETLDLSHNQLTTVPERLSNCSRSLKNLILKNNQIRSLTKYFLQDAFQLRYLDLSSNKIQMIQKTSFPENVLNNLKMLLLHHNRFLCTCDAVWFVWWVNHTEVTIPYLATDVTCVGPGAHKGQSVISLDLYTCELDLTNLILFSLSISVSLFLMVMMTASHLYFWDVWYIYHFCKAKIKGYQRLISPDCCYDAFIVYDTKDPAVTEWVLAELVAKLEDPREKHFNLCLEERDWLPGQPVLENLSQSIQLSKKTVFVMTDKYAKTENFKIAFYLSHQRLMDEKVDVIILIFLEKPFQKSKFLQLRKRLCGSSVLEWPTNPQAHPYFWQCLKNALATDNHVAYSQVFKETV
Experiment: Agonist activity at TLR7 in human Ramos-blue cells assessed as increase in NFkappaB activation incubated for 72 hrs by quanti-blue/SEAP reporter gene based assay
PROPERTY_NAME: EC50
Don't forget the unit after the value.

Please fill in: EC50 reported for CCCCc1nc2c(N)nc3ccccc3c2n1Cc1ccc(N)cc1 = 0.069 µM

Value of measured EC50 for the entry CCCCc1nc2c(N)nc3ccccc3c2n1Cc1ccc(OC)cc1 : 0.232 µM

* * *

assay: Apparent permeability of the compound at 200 uM incubated for 5 hrs by PAMPA assay; format: ADME
Kindly state Papp at 5 h, 200 µM for each of the entries shown.
The response must be a number in nm/s with no trailing unit.

Lab book: Papp at 5 h, 200 µM of CCCCc1nc2c(N)nc3ccccc3c2n1Cc1ccc(NC(=O)CCCCNC(=O)OC(C)(C)C)cc1 noted as 19.5

According to the records, this compound CCCCc1nc2c(N)nc3ccccc3c2n1Cc1ccc(NC(=O)CNC(=O)OC(C)(C)C)cc1 displays Papp at 5 h, 200 µM of 44.8

The reported value for CCCCc1nc2c(N)nc3ccccc3c2n1Cc1ccc(NC(=O)CN)cc1 in terms of Papp at 5 h, 200 µM is 8.34

Lab note: measured Papp at 5 h, 200 µM of CCCCc1nc2c(N)nc3ccccc3c2n1Cc1ccc(NC(=O)CCCNC(=O)OC(C)(C)C)cc1 was 13.3

Entry CCCCc1nc2c(N)nc3ccccc3c2n1Cc1ccc(NC(C)=O)cc1 ; Papp at 5 h, 200 µM = 34.5

Memo: CCCCc1nc2c(N)nc3ccccc3c2n1Cc1ccc(OC)cc1 , reported Papp at 5 h, 200 µM: 40.1

Documented Papp at 5 h, 200 µM of CCCCc1nc2c(N)nc3ccccc3c2n1Cc1cccc(OC)c1 : 25

Documented Papp at 5 h, 200 µM of CCOCc1nc2c(N)nc3ccccc3c2n1CC(C)(C)O [RESIQUIMOD] : 53

The recorded Papp at 5 h, 200 µM for CCCCc1nc2c(N)nc3ccccc3c2n1Cc1ccc(NC(=O)CCCN)cc1 is 1.59

Quick note, Papp at 5 h, 200 µM for CCCCc1nc2c(N)nc3ccccc3c2n1Cc1ccc(NC(=O)CCCCCNC(=O)OC(C)(C)C)cc1 landed at 19.1

Measured Papp at 5 h, 200 µM, CCCCc1nc2c(N)nc3ccccc3c2n1Cc1ccc(N)cc1 : 85.1
